assay: protein stability index of a GFP-peptide fusion (yeast GPS) (PSI 1-4); higher = more stable; sorted into four equal gates, so the index is relative within each strain; settings: doa10∆
observation_type: protein stability index

Use these answered entries as a reference point.
{"residue_codes": "KKRNPSKQNGSKFHFSW [PRP28]", "protein stability index": 2.78}
{"residue_codes": "NANTIETAKMIENMTKE [FAS2]", "protein stability index": 2.72}
{"residue_codes": "AASWYGSFNEMKRNCGQ [RMP1]", "protein stability index": 2.92}
{"residue_codes": "QLKWAQNTIDDTEMKMK [YIL149C/MLP2]", "protein stability index": 2.15}
{"residue_codes": "TQIANAGASPMVNTQQP [PRE4]", "protein stability index": 2.94}
{"residue_codes": "CDILVATPGRLIDSLEN [PRP28]", "protein stability index": 3.54}

Below: the item to evaluate.
// query GET /values?readout=protein stability index&item= KNSDVWFLDHNYIENMN [RPN8]
// result 2.68
